B1: CFHR2 (parent)
chain: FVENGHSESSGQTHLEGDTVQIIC

Variants of: B1
protocol_details: protein stability index of a GFP-peptide fusion (GPS, HEK-293T) (PSI 1-6); higher = more stable;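 further: lentivirally expressed fusions sorted by FACS into six bins by GFP to DsRed ratio, PSI derived from sequencing read proportions per bin multiplied by bin number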
conditions: c terminus: a fixed tail appended
outcome_measure: protein stability index
API doc: respond with a numeric literal and nothing else, no unit.

# protein stability index (variant: G17W ) is 1.79

# protein stability index (variant: E3N ) is 1.92

# protein stability index (variant: V20Y ) is 2.71

# protein stability index (variant: N4K ) is 3.03

# protein stability index (variant: I22K ) is 3.74

# protein stability index (variant: T19P ) is 3.13

# protein stability index (variant: V20E ) is 4.03

# protein stability index (variant: V2F ) is 3.62

# protein stability index (variant: S10L ) is 2.31

# protein stability index (variant: G17R ) is 2.52

# protein stability index (variant: S10P ) is 3.49

# protein stability index (variant: G11I ) is 1.81

# protein stability index (variant: N4I ) is 2.13
